Recorded values, source ChEMBL document CHEMBL1201862.

- TARGET_UNDER_TEST: Glucose-6-phosphate 1-dehydrogenase (Homo sapiens, UniProt P11413)
- Sequence (P11413 whole entry): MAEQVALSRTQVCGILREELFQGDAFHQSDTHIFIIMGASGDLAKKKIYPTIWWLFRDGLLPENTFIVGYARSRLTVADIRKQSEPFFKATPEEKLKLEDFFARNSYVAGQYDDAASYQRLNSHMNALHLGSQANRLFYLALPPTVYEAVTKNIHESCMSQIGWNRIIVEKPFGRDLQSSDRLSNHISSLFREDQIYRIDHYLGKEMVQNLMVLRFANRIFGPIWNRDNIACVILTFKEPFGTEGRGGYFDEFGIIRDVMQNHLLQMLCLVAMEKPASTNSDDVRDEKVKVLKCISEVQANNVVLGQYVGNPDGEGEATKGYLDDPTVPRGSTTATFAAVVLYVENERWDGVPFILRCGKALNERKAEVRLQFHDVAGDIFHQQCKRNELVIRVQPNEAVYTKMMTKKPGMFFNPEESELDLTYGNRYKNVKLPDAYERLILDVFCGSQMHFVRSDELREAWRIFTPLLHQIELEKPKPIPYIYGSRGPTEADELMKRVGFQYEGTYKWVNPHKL
- MEASUREMENT_PROTOCOL: human G6PD enzyme inhibitors, dose response, selectivity assay for P. falciparum G6PD inhibitor project, biochemical, fluorescence (AID 504792)
- Assay type: functional
The source made the active and inactive calls.
ASSAY_ENDPOINT: IC50

Reference set (6 entries):
{"columns": ["COMPOUND", "OBSERVED_RESULT"],
 "data": [
  ["CC(SCC(=O)Nc1ccccc1)c1nc(O)c2ccccc2n1 (centres undefined)", "22.3 µM (inactive)"],
  ["CCN(CC)c1nc(N)nc(NS(=O)(=O)c2ccc(Cl)cc2)n1", "> 80 µM (inactive)"],
  ["CCOc1ccc(Cl)cc1/C=N/NC(N)=O", "> 80 µM (inactive)"],
  ["O=[N+]([O-])c1ccc2c(c1)-c1ccccc1C2O (centres undefined)", "> 80 µM (inactive)"],
  ["c1ccc(-c2cn3c(n2)CCc2ccc4cccnc4c2-3)cc1", "> 80 µM (inactive)"],
  ["COc1cccc(CNc2ccc3[nH]c(O)nc3c2)c1OCc1ccccc1Cl", "> 80 µM (inactive)"]
]}

// query I'm curious: which IC50 was measured for O=c1c2ccccc2sn1-c1ccc(S(=O)(=O)N2CCCC2)cc1 tested on Glucose-6-phosphate 1-dehydrogenase (Homo sapiens, UniProt P11413)?
// result 30.7 µM (inactive)

// query Enter reported IC50 observed with Glucose-6-phosphate 1-dehydrogenase (Homo sapiens, UniProt P11413) for O=C(CN1CCN(c2ccc(O)cc2)CC1)Nc1cc(S(=O)(=O)N2CCOCC2)ccc1Cl
// result > 80 µM (inactive)

// query Query for Glucose-6-phosphate 1-dehydrogenase (Homo sapiens, UniProt P11413): what IC50 does the record show for CC1=CN2C(=N)/C(=C/c3ccc([N+](=O)[O-])o3)C(=O)N=C2S1 ?
// result > 80 µM (inactive)

====

- TARGET_UNDER_TEST: ATP-dependent molecular chaperone HSP82 (Candida albicans (strain WO-1) (Yeast))
- Sequence (C4YTQ8 whole entry): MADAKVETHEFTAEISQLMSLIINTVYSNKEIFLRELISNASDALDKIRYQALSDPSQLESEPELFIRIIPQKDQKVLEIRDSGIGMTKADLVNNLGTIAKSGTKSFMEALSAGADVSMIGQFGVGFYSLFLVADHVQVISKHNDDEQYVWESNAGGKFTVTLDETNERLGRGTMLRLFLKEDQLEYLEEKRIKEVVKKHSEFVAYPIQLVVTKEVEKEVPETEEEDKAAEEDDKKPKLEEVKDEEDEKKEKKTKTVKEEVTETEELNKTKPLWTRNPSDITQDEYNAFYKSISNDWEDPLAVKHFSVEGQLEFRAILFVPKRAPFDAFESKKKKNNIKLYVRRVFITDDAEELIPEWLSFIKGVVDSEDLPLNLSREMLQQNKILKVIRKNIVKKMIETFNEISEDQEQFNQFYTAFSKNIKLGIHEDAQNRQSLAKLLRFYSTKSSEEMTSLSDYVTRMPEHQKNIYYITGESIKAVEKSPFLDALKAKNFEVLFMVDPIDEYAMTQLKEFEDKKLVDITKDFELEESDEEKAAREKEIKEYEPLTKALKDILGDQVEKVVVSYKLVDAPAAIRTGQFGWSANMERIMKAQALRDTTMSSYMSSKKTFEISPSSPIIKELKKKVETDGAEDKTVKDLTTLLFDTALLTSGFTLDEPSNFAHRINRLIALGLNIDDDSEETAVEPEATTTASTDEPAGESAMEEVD
- MEASUREMENT_PROTOCOL: loss of DOC-induced GRE-beta-galactosidase reporter signal, dose response, Hsp90 inhibitor project, S. cerevisiae, luminescence (AID 2400);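 note: beta-galactosidase luminescence from glucocorticoid response element reporter as proxy for Hsp90 function; inhibitor potency where signal loss means Hsp90 inhibition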
- Format: functional, cell-based
Active and inactive are the calls of the source.
Respond using exactly one of the listed classes: yes (1) for active, no (0) for inactive

Some entries whose results are on file:
{"columns": ["SMILES_INPUT", "DISCRETE_LABEL"],
 "data": [
  ["Cc1ccc(/C=C/C(=O)c2ccccc(=O)c2O)cc1C", "yes (1)"],
  ["Cc1cc(=O)oc2cc(Oc3ccc([N+](=O)[O-])cc3[N+](=O)[O-])ccc12", "no (0)"]
]}

// query Kindly provide the recorded test outcome for the following molecule: COc1ccc(CCNc2ncnc3sc(C)cc23)cc1OC
// result no (0)

// query Just curious, what result did Cn1cc(C(c2ccccn2)c2cn(C)c3ccccc23)c2ccccc21 get here?
// result no (0)

====

- TARGET_UNDER_TEST: Paired box protein Pax-8 (Homo sapiens)
- Sequence (Q06710 whole entry): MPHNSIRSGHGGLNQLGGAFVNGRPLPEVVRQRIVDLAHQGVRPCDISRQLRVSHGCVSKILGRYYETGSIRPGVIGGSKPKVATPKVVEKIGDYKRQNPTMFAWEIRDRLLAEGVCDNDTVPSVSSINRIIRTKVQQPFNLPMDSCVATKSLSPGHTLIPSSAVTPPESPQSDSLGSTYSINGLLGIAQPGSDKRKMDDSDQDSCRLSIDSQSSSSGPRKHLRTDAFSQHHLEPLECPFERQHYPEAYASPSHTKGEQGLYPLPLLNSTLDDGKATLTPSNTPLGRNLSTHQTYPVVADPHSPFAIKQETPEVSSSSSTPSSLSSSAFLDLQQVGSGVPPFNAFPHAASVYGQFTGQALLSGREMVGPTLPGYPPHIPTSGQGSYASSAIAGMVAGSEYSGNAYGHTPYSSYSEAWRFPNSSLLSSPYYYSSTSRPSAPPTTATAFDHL
- MEASUREMENT_PROTOCOL: inhibitors of PAX8-driven TPO luciferase reporter, dose response, RMG-I cells, cherry-pick (AID 687027);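 note: luciferase reporter driven by Pax8 target thyroperoxidase promoter measured by SteadyGlo luminescence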
- Type: functional, cell-based
The source made the active and inactive calls.
# Lookup of reported AC50 keyed by entry

Field: example entries. Status: answers known.
{"columns": ["SMILES_INPUT", "OBSERVED_RESULT"],
 "data": [
  ["CO[C@H]1CN(C)C(=O)c2cc(NC(=O)c3nc4ccccc4s3)ccc2OC[C@H](C)N(Cc2cccnc2)C[C@H]1C", "18.8 µM (active)"],
  ["Cc1ccc(S(=O)(=O)Nc2ccc3c(c2)C(=O)N([C@H](C)CO)C[C@@H](C)[C@H](CN(C)S(=O)(=O)c2ccc(Cl)cc2)OCCCC[C@H](C)O3)cc1", "8.13 µM (active)"]
]}

API: the following record is the query input.
// query Could you tell me which AC50 is on file for C[C@H](CO)N1C[C@H](C)[C@@H](CN(C)Cc2ccc(Cl)c(Cl)c2)OCCCC[C@H](C)Oc2ccc(NS(=O)(=O)c3ccc(Cl)cc3)cc2C1=O ?
// result 11.5 µM (active)
